- PROCEDURE SUMMARY: Water solubility
- Assay type: physicochemical
ASSAY METRIC: solubility

Q) Given O=C(O)/C=C/c1ccc(O)c(O)c1 , respond with its solubility.
A) < 1000 µg/mL
